Each recorded value in this set is attributed to ChEMBL document CHEMBL4513216.

assay: Toxicity liver stage against HepG2, at 10uM; format: cell-based; design: test concentration 10 uM, cell line HepG2-A16-CD81EGFP; settings: human, HepG2-A16-CD81EGFP cells; read-out: INHIBITION
cytotoxicity at 10 µM for assorted molecules
The response must be a number in % with no trailing unit.

The following molecules have reported results that may help.
molecule=Cn1cc(C(=O)OC2CN(c3nc4c(C(F)(F)F)cccc4s3)C2)nn1 readout="cytotoxicity at 10 µM" number=-11.8
molecule="CCN(CC1CCOC1)C(=O)NCc1nnc2n1CCCCC2 (stereo not given)" readout="cytotoxicity at 10 µM" number=-0.43

Problem: Return reported cytotoxicity at 10 µM; argument: CCN(CC)C(=O)CN(C)Cc1nc2c(cnn2C)c(=O)[nH]1
Solution: -0.958

Problem: Return reported cytotoxicity at 10 µM; argument: CN1CCN(C[C@@H]2CN(C(=O)CC3CCCCC3)C[C@@H]2CO)CC1
Solution: -8.76

Problem: Return reported cytotoxicity at 10 µM; argument: Cn1cc2ncn([C@H]3CCN(Cc4ccccc4)C3)c(=O)c2n1
Solution: 2.89

----------
cytotoxicity at 10 µM for assorted compounds
experiment: Toxicity liver stage against HepG2, at 10uM; format: cell-based; set-up: test concentration 10 uM, cell line HepG2-A16-CD81EGFP; settings: human, HepG2-A16-CD81EGFP cells; read-out: INHIBITION
The response must be a number in % with no trailing unit.

compound="OCC1(CC2CC2)CCCN(Cc2cnc(C3CCCCC3)nc2)C1 (stereo not given)" readout="cytotoxicity at 10 µM" number=-9.2
compound=Cc1cccc(OCCN2CCN(Cc3noc(C)n3)CC2)c1 readout="cytotoxicity at 10 µM" number=-8.78
compound=Cc1nnc([C@@H]2CC[C@@H]3[C@@H](CCN3S(=O)(=O)C3CC3)O2)o1 readout="cytotoxicity at 10 µM" number=-77
compound=Cn1ncc2c(=O)[nH]c(CN3CCc4ccccc4C3)nc21 readout="cytotoxicity at 10 µM" number=-2.72
compound="Cc1cnn(CC2CCCCN2Cc2noc(C3CC3)n2)c1 (stereo not given)" readout="cytotoxicity at 10 µM" number=-9.32
compound="CC1CCCCN1C(=O)c1nc2c(n1C(C)C)CCN(C(=O)C1CC1)C2 (stereo not given)" readout="cytotoxicity at 10 µM" number=15.4
compound=CCOc1ccccc1CNC(=O)c1cnn(CC)c1C(F)(F)F readout="cytotoxicity at 10 µM" number=3.67
compound=CC(=O)c1cn(CCC(=O)NCCCC(=O)O)c2ccccc12 readout="cytotoxicity at 10 µM" number=-1.63
compound=O=C(N[C@H]1CN[C@H]2CCCO[C@H]21)c1cccnc1 readout="cytotoxicity at 10 µM" number=-9.99

Please find the next compound below.
Problem: Return reported cytotoxicity at 10 µM; argument: COC(=O)C(c1cc(F)ccc1F)N(C)C(=O)c1ccccn1 (stereo not given)
Solution: -2.72

----------
assay: Toxicity liver stage against HepG2, at 10uM; format: cell-based; set-up: test concentration 10 uM, cell line HepG2-A16-CD81EGFP; details: human, HepG2-A16-CD81EGFP cells; read-out: INHIBITION
readout: cytotoxicity at 10 µM (%)
The response must be a number in % with no trailing unit.

The following compounds have reported results that may help.
compound=O=S(=O)(c1cn[nH]c1)N1C[C@@H](O)[C@H](N2CCc3ccccc3C2)C1 readout="cytotoxicity at 10 µM" unit_label=% number=-3.47
compound="Cc1nc2n(n1)CC(NCC(=O)NCC1(c3ccccc3)CC1)CC2 (centres undefined)" readout="cytotoxicity at 10 µM" unit_label=% number=-6.52

Problem: Return reported cytotoxicity at 10 µM; argument: Cc1ncc(CNC2CCc3nc(C(C)C)nn3C2)s1 (centres undefined)
Solution: 3.97
